biological target: FGFR2 (Homo sapiens, UniProt P21802); experiment: KINOMEscan competition binding; conditions: read-out: %Inh FGFR2

molecule	measured target	inhibition at 1 µM
CS(=O)(=O)Cc1ccc(Nc2nccc(-c3c(-c4cccc(NC(=O)C5CCCCC5)c4)nn4ncccc34)n2)cc1 [UNC10225159A]	FGFR2 (Homo sapiens, UniProt P21802)	41%
Cn1cc(-c2cnc(N)c3c(-c4ccc5c(c4)CCN5C(=O)Cc4ccccc4)csc23)cn1 [UNC10225012A]	FGFR2 (Homo sapiens, UniProt P21802)	40%
COc1cccc(OC)c1C(=O)Nc1cccc(-c2nn3ccccc3c2-c2ccnc(Nc3cccc(F)c3)n2)c1 [UNC10225310A]	FGFR2 (Homo sapiens, UniProt P21802)	0%
O=c1cc(N2CCOCC2)nc2n(Cc3cccc(Cl)c3Cl)c(C3CC3)nn12 [UNC10225469A]	FGFR2 (Homo sapiens, UniProt P21802)	1%
Cc1ccc(NC(=O)Nc2cccc(C(F)(F)F)c2)cc1 [UNC10225187A]	FGFR2 (Homo sapiens, UniProt P21802)	0%

---

Target: FLT3-autoinhibited (Homo sapiens)
Sequence (P36888 27-993): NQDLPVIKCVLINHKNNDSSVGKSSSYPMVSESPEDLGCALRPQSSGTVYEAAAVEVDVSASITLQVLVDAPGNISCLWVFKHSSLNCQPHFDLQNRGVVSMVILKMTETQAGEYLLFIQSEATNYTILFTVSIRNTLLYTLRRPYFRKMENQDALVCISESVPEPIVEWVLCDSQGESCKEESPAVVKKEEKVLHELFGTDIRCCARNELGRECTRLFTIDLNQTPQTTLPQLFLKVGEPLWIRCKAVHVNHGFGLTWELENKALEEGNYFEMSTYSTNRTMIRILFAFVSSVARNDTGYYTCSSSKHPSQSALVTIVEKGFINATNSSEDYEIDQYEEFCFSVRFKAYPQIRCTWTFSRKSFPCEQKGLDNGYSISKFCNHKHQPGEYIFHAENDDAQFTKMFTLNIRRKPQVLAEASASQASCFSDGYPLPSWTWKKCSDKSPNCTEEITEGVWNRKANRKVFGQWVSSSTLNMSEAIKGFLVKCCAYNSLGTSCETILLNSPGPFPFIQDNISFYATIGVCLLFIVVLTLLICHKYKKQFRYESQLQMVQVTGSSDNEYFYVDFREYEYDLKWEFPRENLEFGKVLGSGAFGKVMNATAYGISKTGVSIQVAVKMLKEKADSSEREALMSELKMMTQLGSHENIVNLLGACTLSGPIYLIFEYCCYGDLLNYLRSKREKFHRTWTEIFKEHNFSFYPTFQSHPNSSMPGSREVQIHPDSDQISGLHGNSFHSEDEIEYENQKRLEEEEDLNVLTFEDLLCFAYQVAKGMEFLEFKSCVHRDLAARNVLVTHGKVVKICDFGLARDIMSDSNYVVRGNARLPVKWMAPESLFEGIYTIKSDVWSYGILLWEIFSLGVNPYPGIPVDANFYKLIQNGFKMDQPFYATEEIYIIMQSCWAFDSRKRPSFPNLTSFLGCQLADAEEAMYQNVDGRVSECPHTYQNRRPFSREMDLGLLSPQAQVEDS
Test: KINOMEscan competition binding
Settings: read-out: %Inh FLT3-autoinhibited

compound	inhibition at 1 µM / %
O=c1cc(N2CCOCC2)nc2n(Cc3cccc(Cl)c3Cl)c(C3CC3)nn12 [UNC10225469A]	0
COc1cccc(OC)c1C(=O)Nc1cccc(-c2nn3ccccc3c2-c2ccnc(Nc3cccc(F)c3)n2)c1 [UNC10225310A]	0
Cn1cc(-c2cnc(N)c3c(-c4ccc5c(c4)CCN5C(=O)Cc4ccccc4)csc23)cn1 [UNC10225012A]	0
CS(=O)(=O)Cc1ccc(Nc2nccc(-c3c(-c4cccc(NC(=O)C5CCCCC5)c4)nn4ncccc34)n2)cc1 [UNC10225159A]	25
Cc1ccc(NC(=O)Nc2cccc(C(F)(F)F)c2)cc1 [UNC10225187A]	0

---

target: CDK4-cyclinD3 (Homo sapiens); assay: KINOMEscan competition binding; settings: read-out: %Inh CDK4-cyclinD3
Sequence (P11802 whole entry): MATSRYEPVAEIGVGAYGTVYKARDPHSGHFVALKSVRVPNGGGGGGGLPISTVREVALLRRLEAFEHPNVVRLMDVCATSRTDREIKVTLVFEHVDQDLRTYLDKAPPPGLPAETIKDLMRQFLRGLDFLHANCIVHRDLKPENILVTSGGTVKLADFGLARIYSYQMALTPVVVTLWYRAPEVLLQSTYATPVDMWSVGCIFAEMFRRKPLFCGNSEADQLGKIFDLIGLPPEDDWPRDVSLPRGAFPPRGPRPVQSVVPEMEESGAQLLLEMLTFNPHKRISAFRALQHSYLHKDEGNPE
Sequence (P30281 whole entry partner): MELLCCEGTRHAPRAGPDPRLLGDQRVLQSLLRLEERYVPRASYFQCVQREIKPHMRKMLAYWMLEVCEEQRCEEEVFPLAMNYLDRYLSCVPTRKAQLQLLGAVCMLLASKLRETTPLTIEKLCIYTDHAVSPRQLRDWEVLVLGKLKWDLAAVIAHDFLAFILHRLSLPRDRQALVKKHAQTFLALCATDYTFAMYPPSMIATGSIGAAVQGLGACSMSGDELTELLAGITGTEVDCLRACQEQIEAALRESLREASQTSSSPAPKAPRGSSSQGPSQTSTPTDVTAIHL
# inhibition at 1 µM annotations

molecule	measured target	inhibition at 1 µM / %
CS(=O)(=O)Cc1ccc(Nc2nccc(-c3c(-c4cccc(NC(=O)C5CCCCC5)c4)nn4ncccc34)n2)cc1 [UNC10225159A]	CDK4-cyclinD3 (Homo sapiens)	18
O=c1cc(N2CCOCC2)nc2n(Cc3cccc(Cl)c3Cl)c(C3CC3)nn12 [UNC10225469A]	CDK4-cyclinD3 (Homo sapiens)	0
Cn1cc(-c2cnc(N)c3c(-c4ccc5c(c4)CCN5C(=O)Cc4ccccc4)csc23)cn1 [UNC10225012A]	CDK4-cyclinD3 (Homo sapiens)	0
COc1cccc(OC)c1C(=O)Nc1cccc(-c2nn3ccccc3c2-c2ccnc(Nc3cccc(F)c3)n2)c1 [UNC10225310A]	CDK4-cyclinD3 (Homo sapiens)	7
Cc1ccc(NC(=O)Nc2cccc(C(F)(F)F)c2)cc1 [UNC10225187A]	CDK4-cyclinD3 (Homo sapiens)	0

---

biological target: EPHA3 (Homo sapiens); test: KINOMEscan competition binding; conditions: read-out: %Inh EPHA3

compound	measured target	inhibition at 1 µM / %
O=c1cc(N2CCOCC2)nc2n(Cc3cccc(Cl)c3Cl)c(C3CC3)nn12 [UNC10225469A]	EPHA3 (Homo sapiens)	0
Cc1ccc(NC(=O)Nc2cccc(C(F)(F)F)c2)cc1 [UNC10225187A]	EPHA3 (Homo sapiens)	0
CS(=O)(=O)Cc1ccc(Nc2nccc(-c3c(-c4cccc(NC(=O)C5CCCCC5)c4)nn4ncccc34)n2)cc1 [UNC10225159A]	EPHA3 (Homo sapiens)	16
COc1cccc(OC)c1C(=O)Nc1cccc(-c2nn3ccccc3c2-c2ccnc(Nc3cccc(F)c3)n2)c1 [UNC10225310A]	EPHA3 (Homo sapiens)	0
Cn1cc(-c2cnc(N)c3c(-c4ccc5c(c4)CCN5C(=O)Cc4ccccc4)csc23)cn1 [UNC10225012A]	EPHA3 (Homo sapiens)	0

---

biological target: EPHA8 (Homo sapiens, UniProt P29322); assay: KINOMEscan competition binding; conditions: read-out: %Inh EPHA8
Sequence (P29322 28-1005): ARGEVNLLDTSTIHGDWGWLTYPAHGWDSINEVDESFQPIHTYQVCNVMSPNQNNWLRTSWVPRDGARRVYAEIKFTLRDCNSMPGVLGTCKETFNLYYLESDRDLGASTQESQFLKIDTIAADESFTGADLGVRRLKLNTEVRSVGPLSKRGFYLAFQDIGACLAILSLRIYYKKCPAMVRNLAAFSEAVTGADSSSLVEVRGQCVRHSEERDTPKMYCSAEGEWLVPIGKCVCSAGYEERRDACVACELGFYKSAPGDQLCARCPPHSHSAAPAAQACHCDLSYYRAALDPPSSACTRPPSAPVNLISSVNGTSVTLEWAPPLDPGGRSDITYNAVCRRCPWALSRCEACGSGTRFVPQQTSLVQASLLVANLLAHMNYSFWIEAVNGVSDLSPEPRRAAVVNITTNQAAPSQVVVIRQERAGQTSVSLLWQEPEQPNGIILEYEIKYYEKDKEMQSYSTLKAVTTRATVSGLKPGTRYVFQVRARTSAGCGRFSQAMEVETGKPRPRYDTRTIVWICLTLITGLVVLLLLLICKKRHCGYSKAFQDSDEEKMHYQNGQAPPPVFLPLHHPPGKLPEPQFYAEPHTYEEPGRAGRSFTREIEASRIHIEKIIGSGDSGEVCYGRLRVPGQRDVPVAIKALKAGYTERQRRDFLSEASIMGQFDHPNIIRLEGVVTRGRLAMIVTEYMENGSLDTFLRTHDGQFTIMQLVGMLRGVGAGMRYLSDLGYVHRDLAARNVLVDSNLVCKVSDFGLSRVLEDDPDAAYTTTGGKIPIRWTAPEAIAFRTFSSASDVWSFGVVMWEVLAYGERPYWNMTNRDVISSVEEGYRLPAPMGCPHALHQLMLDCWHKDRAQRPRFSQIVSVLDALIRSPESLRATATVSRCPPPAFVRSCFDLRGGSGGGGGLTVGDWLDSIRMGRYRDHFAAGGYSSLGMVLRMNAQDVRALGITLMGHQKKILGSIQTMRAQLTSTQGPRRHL
# if value of inhibition at 1 µM reaches 8%, tag criterion met; if it stays below, tag criterion not met

molecule	cat
Cc1ccc(NC(=O)Nc2cccc(C(F)(F)F)c2)cc1 [UNC10225187A]	criterion not met
CS(=O)(=O)Cc1ccc(Nc2nccc(-c3c(-c4cccc(NC(=O)C5CCCCC5)c4)nn4ncccc34)n2)cc1 [UNC10225159A]	criterion met
COc1cccc(OC)c1C(=O)Nc1cccc(-c2nn3ccccc3c2-c2ccnc(Nc3cccc(F)c3)n2)c1 [UNC10225310A]	criterion met
O=c1cc(N2CCOCC2)nc2n(Cc3cccc(Cl)c3Cl)c(C3CC3)nn12 [UNC10225469A]	criterion met

---

# inhibition at 1 µM annotations
target: CAMKK2 (Homo sapiens); experiment: KINOMEscan competition binding; conditions: read-out: %Inh CAMKK2

molecule	value unit	inhibition at 1 µM
O=c1cc(N2CCOCC2)nc2n(Cc3cccc(Cl)c3Cl)c(C3CC3)nn12 [UNC10225469A]	%	8
COc1cccc(OC)c1C(=O)Nc1cccc(-c2nn3ccccc3c2-c2ccnc(Nc3cccc(F)c3)n2)c1 [UNC10225310A]	%	0
CS(=O)(=O)Cc1ccc(Nc2nccc(-c3c(-c4cccc(NC(=O)C5CCCCC5)c4)nn4ncccc34)n2)cc1 [UNC10225159A]	%	0
Cn1cc(-c2cnc(N)c3c(-c4ccc5c(c4)CCN5C(=O)Cc4ccccc4)csc23)cn1 [UNC10225012A]	%	19
Cc1ccc(NC(=O)Nc2cccc(C(F)(F)F)c2)cc1 [UNC10225187A]	%	19

---

target: DAPK1 (Homo sapiens); test: KINOMEscan competition binding; conditions: read-out: %Inh DAPK1
Sequence (P53355 whole entry): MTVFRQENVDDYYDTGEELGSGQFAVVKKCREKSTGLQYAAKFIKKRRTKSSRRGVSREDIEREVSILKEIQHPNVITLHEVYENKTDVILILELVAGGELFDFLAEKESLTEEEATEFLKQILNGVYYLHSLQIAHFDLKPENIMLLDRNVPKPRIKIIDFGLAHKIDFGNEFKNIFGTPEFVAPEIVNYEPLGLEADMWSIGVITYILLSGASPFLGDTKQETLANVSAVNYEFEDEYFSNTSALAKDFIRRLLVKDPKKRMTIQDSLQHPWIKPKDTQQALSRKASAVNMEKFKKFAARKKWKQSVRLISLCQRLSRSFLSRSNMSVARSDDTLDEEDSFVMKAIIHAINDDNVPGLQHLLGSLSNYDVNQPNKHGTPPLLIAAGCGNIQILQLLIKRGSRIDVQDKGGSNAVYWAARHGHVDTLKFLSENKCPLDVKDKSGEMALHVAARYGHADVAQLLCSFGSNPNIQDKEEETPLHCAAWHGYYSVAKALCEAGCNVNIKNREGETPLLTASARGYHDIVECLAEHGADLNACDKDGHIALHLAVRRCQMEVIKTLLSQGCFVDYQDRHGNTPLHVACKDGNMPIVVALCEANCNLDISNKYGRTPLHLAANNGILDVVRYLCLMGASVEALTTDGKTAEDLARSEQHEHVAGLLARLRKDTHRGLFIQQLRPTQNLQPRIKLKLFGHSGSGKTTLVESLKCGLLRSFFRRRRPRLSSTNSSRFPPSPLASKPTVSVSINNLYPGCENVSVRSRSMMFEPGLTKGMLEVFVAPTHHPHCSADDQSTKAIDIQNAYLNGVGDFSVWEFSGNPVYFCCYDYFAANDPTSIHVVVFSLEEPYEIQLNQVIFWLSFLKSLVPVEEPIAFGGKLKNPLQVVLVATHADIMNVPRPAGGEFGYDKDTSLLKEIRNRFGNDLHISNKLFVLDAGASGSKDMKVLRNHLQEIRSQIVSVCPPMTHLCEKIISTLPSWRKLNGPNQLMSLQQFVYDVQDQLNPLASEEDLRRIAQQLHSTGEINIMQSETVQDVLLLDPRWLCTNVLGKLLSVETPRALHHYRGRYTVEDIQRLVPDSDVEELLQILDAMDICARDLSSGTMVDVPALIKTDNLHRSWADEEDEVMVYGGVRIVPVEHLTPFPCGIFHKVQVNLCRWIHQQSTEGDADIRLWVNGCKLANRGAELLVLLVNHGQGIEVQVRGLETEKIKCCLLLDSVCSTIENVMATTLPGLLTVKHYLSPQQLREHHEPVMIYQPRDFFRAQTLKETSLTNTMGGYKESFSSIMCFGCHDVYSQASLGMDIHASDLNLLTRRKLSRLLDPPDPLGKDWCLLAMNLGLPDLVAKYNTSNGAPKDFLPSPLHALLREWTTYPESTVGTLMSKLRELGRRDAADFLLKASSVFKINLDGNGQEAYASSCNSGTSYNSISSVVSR

compound	value unit	inhibition at 1 µM
Cc1ccc(NC(=O)Nc2cccc(C(F)(F)F)c2)cc1 [UNC10225187A]	%	18
O=c1cc(N2CCOCC2)nc2n(Cc3cccc(Cl)c3Cl)c(C3CC3)nn12 [UNC10225469A]	%	26
Cn1cc(-c2cnc(N)c3c(-c4ccc5c(c4)CCN5C(=O)Cc4ccccc4)csc23)cn1 [UNC10225012A]	%	38
CS(=O)(=O)Cc1ccc(Nc2nccc(-c3c(-c4cccc(NC(=O)C5CCCCC5)c4)nn4ncccc34)n2)cc1 [UNC10225159A]	%	0
COc1cccc(OC)c1C(=O)Nc1cccc(-c2nn3ccccc3c2-c2ccnc(Nc3cccc(F)c3)n2)c1 [UNC10225310A]	%	10

---

molecular target: CDC2L5 (Homo sapiens); experiment: KINOMEscan competition binding; settings: read-out: %Inh CDC2L5
Sequence (Q14004 whole entry): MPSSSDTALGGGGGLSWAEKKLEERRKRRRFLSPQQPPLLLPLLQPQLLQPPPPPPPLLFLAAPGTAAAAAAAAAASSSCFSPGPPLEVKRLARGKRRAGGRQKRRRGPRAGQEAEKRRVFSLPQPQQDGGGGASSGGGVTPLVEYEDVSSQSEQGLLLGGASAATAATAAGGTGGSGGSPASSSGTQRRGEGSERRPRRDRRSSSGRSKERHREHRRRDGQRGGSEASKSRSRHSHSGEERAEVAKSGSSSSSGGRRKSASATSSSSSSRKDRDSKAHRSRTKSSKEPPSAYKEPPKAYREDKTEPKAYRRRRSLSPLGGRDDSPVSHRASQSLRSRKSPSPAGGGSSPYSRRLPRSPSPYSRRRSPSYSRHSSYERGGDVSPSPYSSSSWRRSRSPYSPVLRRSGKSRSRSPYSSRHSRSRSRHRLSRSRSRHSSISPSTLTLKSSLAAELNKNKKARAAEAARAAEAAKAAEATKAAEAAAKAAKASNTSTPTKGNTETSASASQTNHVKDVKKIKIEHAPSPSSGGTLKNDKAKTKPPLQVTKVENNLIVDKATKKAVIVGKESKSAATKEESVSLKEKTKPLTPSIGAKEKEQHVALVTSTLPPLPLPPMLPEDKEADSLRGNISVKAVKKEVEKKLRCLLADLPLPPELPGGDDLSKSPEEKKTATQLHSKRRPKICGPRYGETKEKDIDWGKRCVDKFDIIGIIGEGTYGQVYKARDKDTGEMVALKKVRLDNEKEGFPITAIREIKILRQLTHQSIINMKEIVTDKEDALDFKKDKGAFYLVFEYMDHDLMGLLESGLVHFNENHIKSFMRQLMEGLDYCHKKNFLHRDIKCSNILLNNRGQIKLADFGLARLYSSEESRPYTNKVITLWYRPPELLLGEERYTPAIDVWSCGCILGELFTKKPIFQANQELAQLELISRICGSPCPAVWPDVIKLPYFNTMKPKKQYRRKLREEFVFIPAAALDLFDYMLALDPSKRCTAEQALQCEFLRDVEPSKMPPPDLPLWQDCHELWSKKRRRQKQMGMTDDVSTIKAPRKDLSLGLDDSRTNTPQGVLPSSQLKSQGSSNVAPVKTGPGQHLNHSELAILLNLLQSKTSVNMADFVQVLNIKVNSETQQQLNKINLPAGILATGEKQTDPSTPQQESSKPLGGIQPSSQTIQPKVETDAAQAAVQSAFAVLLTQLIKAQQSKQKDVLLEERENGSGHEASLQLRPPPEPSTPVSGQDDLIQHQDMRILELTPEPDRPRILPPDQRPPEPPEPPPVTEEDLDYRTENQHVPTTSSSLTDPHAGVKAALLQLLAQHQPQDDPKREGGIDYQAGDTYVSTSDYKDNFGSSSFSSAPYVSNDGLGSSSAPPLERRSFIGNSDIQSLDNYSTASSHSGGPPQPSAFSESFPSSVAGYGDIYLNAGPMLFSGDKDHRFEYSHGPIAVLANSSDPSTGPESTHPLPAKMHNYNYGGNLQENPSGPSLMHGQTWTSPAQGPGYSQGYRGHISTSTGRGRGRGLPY
# inhibition at 1 µM annotations

compound	value unit	inhibition at 1 µM
Cc1ccc(NC(=O)Nc2cccc(C(F)(F)F)c2)cc1 [UNC10225187A]	%	0
COc1cccc(OC)c1C(=O)Nc1cccc(-c2nn3ccccc3c2-c2ccnc(Nc3cccc(F)c3)n2)c1 [UNC10225310A]	%	1
CS(=O)(=O)Cc1ccc(Nc2nccc(-c3c(-c4cccc(NC(=O)C5CCCCC5)c4)nn4ncccc34)n2)cc1 [UNC10225159A]	%	30
O=c1cc(N2CCOCC2)nc2n(Cc3cccc(Cl)c3Cl)c(C3CC3)nn12 [UNC10225469A]	%	0
Cn1cc(-c2cnc(N)c3c(-c4ccc5c(c4)CCN5C(=O)Cc4ccccc4)csc23)cn1 [UNC10225012A]	%	0
